Values were extracted from the supplement of paper PMC8728848.

Target: Fuc(a1-2)Gal6S(b1-4)Glc
Assay: glycan array binding signal (z-score within array); higher = stronger binding
Details: glycan notation: IUPAC condensed, linker removed
This is one part of a sample in which the strongest signals are shown more often than they occur.
This section presents binders with their documented glycan array binding signal (z-score) values.
Just the number, please, no unit attached.

Example results:
>>> meas_value("BC2L-A (Burkholderia cenocepacia), Q1BKJ8_BURCA (protein) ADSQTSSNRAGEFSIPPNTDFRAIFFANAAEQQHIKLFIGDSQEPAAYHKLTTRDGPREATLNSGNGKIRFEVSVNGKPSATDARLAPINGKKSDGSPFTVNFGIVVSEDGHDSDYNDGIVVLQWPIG")
-0.176
>>> meas_value("cupB6 (Pseudomonas aeruginosa), Q02SP7 (protein) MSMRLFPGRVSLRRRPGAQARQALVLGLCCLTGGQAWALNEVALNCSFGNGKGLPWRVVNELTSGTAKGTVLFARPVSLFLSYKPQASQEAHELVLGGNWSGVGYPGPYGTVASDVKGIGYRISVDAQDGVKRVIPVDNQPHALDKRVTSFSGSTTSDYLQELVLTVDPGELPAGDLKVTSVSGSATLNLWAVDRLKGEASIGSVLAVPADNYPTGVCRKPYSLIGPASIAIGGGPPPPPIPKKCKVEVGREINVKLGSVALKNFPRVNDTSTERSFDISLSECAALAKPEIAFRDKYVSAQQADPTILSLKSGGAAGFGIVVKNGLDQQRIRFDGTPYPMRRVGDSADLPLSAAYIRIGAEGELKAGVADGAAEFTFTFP")
0.068
>>> meas_value("Fm1D (Escherichia coli) (protein) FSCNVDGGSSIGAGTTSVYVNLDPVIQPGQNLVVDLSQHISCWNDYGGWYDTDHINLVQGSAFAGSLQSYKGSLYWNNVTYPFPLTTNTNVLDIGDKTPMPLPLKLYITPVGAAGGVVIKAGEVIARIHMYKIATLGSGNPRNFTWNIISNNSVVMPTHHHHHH")
-0.149

The recorded glycan array binding signal (z-score) for GH98CBM51-1 (Streptococcus pneumoniae) (protein) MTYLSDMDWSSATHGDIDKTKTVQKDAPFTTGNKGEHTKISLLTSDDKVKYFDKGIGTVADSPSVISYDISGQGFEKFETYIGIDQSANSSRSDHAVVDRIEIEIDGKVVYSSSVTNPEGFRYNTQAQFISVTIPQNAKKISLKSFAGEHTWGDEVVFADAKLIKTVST is -0.185
